The origin of these recorded values is patent US20200347144A1.

- ASSAY TARGET: T1, hFc-tagged human 4-1BB extracellular domain protein (4-1BB-hFc) (human, UniProt Q07011 24-186, limits assumed)
- T1 construct: also called immunogen A; 4-1BB^ECD-hFc; not shown: human IgG Fc fragment (hFc) of the pCpC vector
- EXPERIMENTAL PROTOCOL: ELISA, coated human 4-1BB-hFc; Ab 0.0001 ug/ml
QUANTITY MEASURED: OD450 nm (OD450 nm)
Field: numeric (OD450 nm). Do not append units.

QUERY: What measured OD450 nm goes with 118F3A2 (antibody, V domains shown) VH: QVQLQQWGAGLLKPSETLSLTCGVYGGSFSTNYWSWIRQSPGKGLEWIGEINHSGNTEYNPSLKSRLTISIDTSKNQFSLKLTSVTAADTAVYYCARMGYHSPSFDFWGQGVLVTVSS VL: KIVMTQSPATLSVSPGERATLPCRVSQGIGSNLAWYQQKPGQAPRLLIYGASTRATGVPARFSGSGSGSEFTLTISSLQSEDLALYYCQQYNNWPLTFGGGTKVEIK ?
RESULT: 0.43
